Source: ChEMBL document CHEMBL4043200

Target: Phosphatidylinositol 4,5-bisphosphate 3-kinase catalytic subunit beta isoform (Homo sapiens) (UniProt P42338)
Sequence (P42338 whole entry, looked up, canonical isoform): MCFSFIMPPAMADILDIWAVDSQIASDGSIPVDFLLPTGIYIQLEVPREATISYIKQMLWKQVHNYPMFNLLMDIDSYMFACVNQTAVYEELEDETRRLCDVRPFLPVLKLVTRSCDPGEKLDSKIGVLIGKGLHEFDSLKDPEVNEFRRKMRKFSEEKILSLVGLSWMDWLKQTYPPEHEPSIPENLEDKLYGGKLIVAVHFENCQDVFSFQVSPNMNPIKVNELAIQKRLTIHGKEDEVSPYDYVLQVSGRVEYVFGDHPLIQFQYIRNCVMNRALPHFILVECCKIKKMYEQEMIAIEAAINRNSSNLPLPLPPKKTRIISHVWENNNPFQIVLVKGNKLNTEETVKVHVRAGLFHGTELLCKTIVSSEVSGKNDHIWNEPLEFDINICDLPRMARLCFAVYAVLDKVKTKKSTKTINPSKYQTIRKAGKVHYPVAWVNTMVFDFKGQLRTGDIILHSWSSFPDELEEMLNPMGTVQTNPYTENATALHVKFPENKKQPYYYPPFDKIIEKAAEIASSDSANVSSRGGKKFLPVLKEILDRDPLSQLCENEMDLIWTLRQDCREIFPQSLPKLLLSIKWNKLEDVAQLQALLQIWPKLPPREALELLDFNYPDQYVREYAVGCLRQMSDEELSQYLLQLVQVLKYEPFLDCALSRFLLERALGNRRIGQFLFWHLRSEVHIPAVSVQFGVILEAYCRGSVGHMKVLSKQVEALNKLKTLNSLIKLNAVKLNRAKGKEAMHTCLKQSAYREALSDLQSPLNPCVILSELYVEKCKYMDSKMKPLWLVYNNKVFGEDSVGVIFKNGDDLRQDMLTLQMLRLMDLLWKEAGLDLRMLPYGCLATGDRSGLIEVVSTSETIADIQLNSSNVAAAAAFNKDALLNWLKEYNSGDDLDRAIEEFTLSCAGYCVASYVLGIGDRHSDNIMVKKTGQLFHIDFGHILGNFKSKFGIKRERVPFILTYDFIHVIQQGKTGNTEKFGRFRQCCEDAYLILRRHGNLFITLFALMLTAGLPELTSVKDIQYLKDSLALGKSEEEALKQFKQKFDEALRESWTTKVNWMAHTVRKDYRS
Experiment: Inhibition of wild type PI3K-beta (unknown origin) assessed as decrease in ATP consumption at 10 uM using phosphotidylinositol bisphosphate and ATP measured after 60 mins by Kinase-Glo reagent based luminescence assay
Give True when the value for inhibition is at least 20%. Give False when it is less.

Smi	Discrete label
COc1ccc(-c2c(OCc3cccnc3)ccc3c(=O)nc(N4CCOCC4)oc23)cc1	True
O=c1nc(N2CCOCC2)oc2c(-c3ccccc3)c(OCc3ccccc3)ccc12	True
O=c1nc(N2CCOCC2)oc2c(-c3ccc(Cl)cc3)c(OCCBr)ccc12	False
O=c1nc(N2CCOCC2)oc2c(-c3ccc(Cl)cc3)c(OCc3ccccn3)ccc12	True
O=c1nc(N2CCOCC2)oc2c(-c3cccnc3)c(OCc3ccccc3)ccc12	True
O=c1nc(N2CCOCC2)oc2c(-c3ccsc3)c(OCc3cccnc3)ccc12	False
O=c1nc(N2CCOCC2)oc2c(-c3cc4ccccc4s3)c(OCc3ccccc3)ccc12	False
